Provenance of the data: ChEMBL document CHEMBL1123604

Tested on: Canis familiaris
Assay: Myocardial contractility in anesthetized dog by intravenous dose
Type: functional
Conditions: Canis lupus familiaris, Myocardium
ENDPOINT NAME: ED50

COMPOUND | ASSAY SYSTEM | ED50
CC1(C)C(=O)NN=C1c1ccc(-n2cnc3c2CCCC3)cc1 | Canis familiaris | 0.2 mg/kg
CC1(C)C(=O)NN=C1c1ccc(-n2ccnc2)cc1 | Canis familiaris | 0.18 mg/kg

ED50 reported for this compound CC1C(=O)NN=C1c1ccc(-n2ccnc2)cc1 (stereo not drawn) : > 1 mg/kg

----------
Test system: Canis familiaris
Assay: Myocardial contractility in anesthetized dog by intravenous dose
Format: functional
Settings: Canis lupus familiaris, Myocardium
# ED50 annotations
Give the value in mg/kg but do not write mg/kg after it.

Worked cases, ED50 given:
COMPOUND | ASSAY SYSTEM | ED50 [mg/kg]
CCC1(C)C(=O)NN=C1c1ccc(-n2ccnc2)cc1 (configuration not stated) | Canis familiaris | 0.37
CSc1ccc(C2=NNC(=O)C2(C)C)cc1 | Canis familiaris | 0.35
CC1(C)C(=O)NN=C1c1ccncc1 | Canis familiaris | 0.3

ED50 reported for this compound "O=C1NN=C(c2ccc(-n3ccnc3)cc2)C12CCCC2" : 1

----------
Assay: Inhibition of Guinea Pig cAMP specific phosphodiesterase (PDE III)
Response field label: string, one of Criterion met (IC50 strictly below 100 µM) or Criterion not met.

MOLECULE | ASSIGNED CATEGORY
CCC1(CC)C(=O)NN=C1c1ccc(-n2ccnc2)cc1 | Criterion not met
CC1(C)C(=O)NN=C1c1ccc(-n2cnc3c2CCCC3)cc1 | Criterion met
CCC1(C)C(=O)NN=C1c1ccc(-n2ccnc2)cc1 (configuration not stated) | Criterion met
O=C1CC(c2ccc(-n3ccnc3)cc2)=NN1 | Criterion not met
O=C1NN=C(c2ccc(-n3ccnc3)cc2)C12CCCC2 | Criterion met
CC1(C)C(=O)NN=C1c1ccc(-n2ccnc2)cc1 | Criterion met

Then there is this molecule:
Please state whether IC50 is below 100 µM for CCC1C(=O)NN=C1c1ccc(-n2ccnc2)cc1 (configuration not stated)
Criterion not met

----------
Test system: Canis familiaris
Experiment: Myocardial contractility in anesthetized dog by intravenous dose
Type: functional
Conditions: Canis lupus familiaris, Myocardium
# ED50 annotations

Worked cases, ED50 given:
MOLECULE | ED50
CCC1C(=O)NN=C1c1ccc(-n2ccnc2)cc1 (stereo not drawn) | > 1 mg/kg
O=C1CC(c2ccc(-n3ccnc3)cc2)=NN1 | > 1 mg/kg

Now consider the entry below.
Log: Canis familiaris, molecule "CCC1(CC)C(=O)NN=C1c1ccc(-n2ccnc2)cc1" , ED50 = > 1 mg/kg
